Reported pKd by item:
Molecular target: SARS-CoV-2 spike RBD (Wuhan-Hu-1) (Severe acute respiratory syndrome …, UniProt P0DTC2)
Assay: SPR
Interpret pKd as the negative base-10 log of the concentration measured in mol/L.

1) COVIC-338 (antibody, V domains shown) VH: EVQLVESGGGLVQPGRSLRLSCAASGLTFEDYAMHWVRQPPGKGLEWVSGVSWNSGTIGYADSVKGRFTISRDNAKNSLYLHMRSLGAEDTAMYYCAKDMGGRFSFFSLENDAFDIWGQGTMVIVSS VL: SYELTQPPSVSVSPGQTARITCSGDALPKQSTYWYQQKPGQAPVLVIYKDIERPSGIPERFSGSSSGTTVTLTISGVQAEDEADYYCQSADSSDTYVFGTGTKVTVL: 11.18
2) COVIC-331 (antibody, V domains shown) VH: EVQLVESGGGLIQVGGSLRLSCAASGLTVTSNYMNWVRQGPGKGLEWVSLIYSGGTTYYADSVKGRFTISRDDSKNTLYLQMNSLRAEDTAVYYCARPIVGARSGMDVWGQGTAVTVSS VL: DIQMTQSPSSLSASVGDRVTITCQASQDINKYLNWYQQKPGKAPKLLIYDASNLETGVPSRFSGSGSGTDFTFTISSLQPEDLATYYCHQFDNLPGTFGGGTKVEIK: 10.15

As a next step, examine the binder that follows.
Incoming: Could you please provide reported pKd for COVIC-360 (antibody, V domains shown) VH: EVQLVESGGGLVQPGGSLRLSCKASGISVAPHAVTWVRQAPGKGLEWIGVIASNADTYYASWAKGRFTISRDNSKNTLYLQMNSLRAEDTAVYYCARHPGSAGYGYTYYYAMDPWGQGTLVTVSS VL: DIQMTQSPSSLSASVGDRVTITCQASQKIHYAINWYQQKPGKAPKLLIYGTSYLGGGVPSRFSGSGSGTDFTLTISSLQPEDFATYYCQQGYIVPNSFGGGTKVEIK ? Thanks!
Outgoing: 10.88

These entries and their values trace back to paper PMC12014896.
